- MEASUREMENT DESCRIPTION: amyloid nucleation score (Sup35N fusion, yeast selection) (log enrichment); library NNK1; higher = more nucleation; inactive = no reads after selection;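 further: zero at mode of non-aggregating sequences after 7 days selection at 30°C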
Form field: amyloid nucleation score (one value per entry).
Output spec: single numeric token, no unit.

GFLICVFLSLVGYFGTCLRT -0.554
DADDLSIGAVNRTC -0.066
KLMVHRNDRNPMY -0.318
LCGISSSCYVVGSLRVIWLS 0.147
IPPNSWMKSRNCTKLTARVY -0.312

Q: Any idea what its amyloid nucleation score is? The substance is TGRRLERGMRLRHGDAEYCC
Result: 0.408

Q: What measured amyloid nucleation score goes with THLGGRRFHFSELRTRSSRG ?
Result: -0.023

Q: I am curious: what amyloid nucleation score value has been reported for GRPICYKTHFSSLYVSEVDR ?
Result: -1.19

Q: Which measured amyloid nucleation score value corresponds to FGGWVSLRSQKCMRPWRLGG ?
Result: -1.22

Q: Need amyloid nucleation score of SCSVSNGVFCNHGRGCGFRL , thanks.
Result: 2.12
